B1: tRNA (parent)
chain: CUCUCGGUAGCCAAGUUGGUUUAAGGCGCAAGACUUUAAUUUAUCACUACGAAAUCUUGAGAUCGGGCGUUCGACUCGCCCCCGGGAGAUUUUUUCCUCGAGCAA

variants of: B1; assay: nonsense suppression (GFP-seq) (ratio to wild type); higher = more function; SUP4oc tRNA, yeast GFP reporter sort-seq
This sample holds only a part of the variants without activity.
Where nonsense suppression equals or exceeds 0.2, the correct label is yes (1); where it does not, the label is no (0).

Examples with answers:
mutant-name	group-label
C27U C77A	no (0)
G26A U70A	no (0)
A60G U63A	no (0)
A31G C75A	yes (1)
C3U A24C	no (0)
G26A C27A	no (0)
A31U A60C C75A	no (0)
U4C A9G	yes (1)

Ask: Is reported nonsense suppression greater than or equal to 0.2 here: G10U G18A C75U
Reply: no (0)

Ask: Same thing, different variant: U2C G78A
Reply: no (0)

Ask: Same thing, different variant: A9U G66A
Reply: no (0)
